Experiment: growth inhibition of non-replicating M. tuberculosis (AID 488890);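 further: plate controls were DMSO cells for no effect and high antibiotic wells for full effect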
Conditions: Mycobacterium tuberculosis non-replicating, at 25 µM, stronger effect = higher value
Screen size: about 320,000 compounds; about 1,300 (0.41%) were called active. About 3% were inconclusive and are not listed. Not all results are given here. Measured potencies and affinities stand elsewhere.
Respond with 1.0 for inhibition values of 20% and above, 0.0 for values below.

Textbook exercise: given the entry "COc1ccc(-c2cc3ccc(OCC(C)=O)cc3oc2=O)cc1" , state whether its inhibition is greater than or equal to 20%.
0.0

----------
Assay: growth inhibition of non-replicating M. tuberculosis (AID 488890);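 further: plate controls were DMSO cells for no effect and high antibiotic wells for full effect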
Settings: Mycobacterium tuberculosis non-replicating, at 25 µM, stronger effect = higher value
Screen size: about 320,000 compounds; about 1,300 (0.41%) were called active. Roughly 3% stayed inconclusive and do not appear here. A selection follows. Measured potencies and affinities stand elsewhere.
Metric: inhibition (%)
Hi! Could you send only the number? It should be in %, unit omitted.

What value of inhibition has been reported for the following molecule? "CCCCCn1c(=O)c(C(=O)Nc2ccccn2)c(O)c2ccccc21"
68.9

What value of inhibition has been reported for the following molecule? "CCOc1ccc(OCc2ccc(C(=O)N/N=C(\C)c3ccccn3)cc2)cc1"
94.8

What value of inhibition has been reported for the following molecule? "Cc1cc(OC2CCCCC2)nc(NCc2ccccc2)n1"
29.8

What value of inhibition has been reported for the following molecule? "Cc1cc(Nc2ccccc2)nc(NCc2ccccc2)n1"
69.7

What value of inhibition has been reported for the following molecule? "COC(=O)c1sccc1-c1ccc(C(=O)Nc2cccnc2)o1"
-4.8

What value of inhibition has been reported for the following molecule? "Cc1cc(=O)oc(C)c1C(=O)OCC(=O)c1ccc(Cl)cc1"
72.7

What value of inhibition has been reported for the following molecule? "Cc1cc(C)n2nc(S(=O)(=O)NC(C)(C)C)nc2n1"
-0.21

What value of inhibition has been reported for the following molecule? CCCCn1c(=O)c(CCC(=O)OCC(=O)NC(C)c2ccccc2)nc2ccccc21 (stereo not given)
55.8

What value of inhibition has been reported for the following molecule? "O=C(Nc1c2c(nn1-c1ccc(F)cc1)CS(=O)(=O)C2)C1CCCC1"
-10.4

What value of inhibition has been reported for the following molecule? "COc1ccc(Nc2cc(C)nc3ccccc23)cc1"
36.9

What value of inhibition has been reported for the following molecule? "O=C(COc1ccccc1)N/N=C/c1sc(=O)n(Cc2cccc(C(=O)O)c2)c1Cl"
-0.36

What value of inhibition has been reported for the following molecule? "O=C(Nc1nccs1)C(Cl)(Cl)Cl"
5.95

What value of inhibition has been reported for the following molecule? "O=C(CN1CCN(S(=O)(=O)c2ccc(F)cc2)CC1)Nc1ccc(Cl)cn1"
37.8

What value of inhibition has been reported for the following molecule? "COc1ccccc1/C=N/Nc1cc(C)nc2ccc(C)cc12"
-9.66

What value of inhibition has been reported for the following molecule? "CSC(=NNC(=O)c1ccccc1O)SC"
14.8

What value of inhibition has been reported for the following molecule? "Cc1cc(C(=O)N(C)CC(=O)Nc2ccc(Cl)c(C(F)(F)F)c2)no1"
6.97

What value of inhibition has been reported for the following molecule? "Cc1cc(C)c2sc(N(CCCN(C)C)C(=O)CN3C(=O)c4ccccc4C3=O)nc2c1"
16.6

What value of inhibition has been reported for the following molecule? "COc1cc(/C=N/Nc2nc(C)cc(C)n2)ccc1OC(=O)c1ccco1"
23.8

What value of inhibition has been reported for the following molecule? "Cn1cccc1C(=O)OCC(=O)Nc1cccc(S(=O)(=O)N2CCOCC2)c1"
-0.69

What value of inhibition has been reported for the following molecule? "CCCCCn1c(=O)c(C(=O)Nc2cc(C)ccn2)c(O)c2ccccc21"
17.3

What value of inhibition has been reported for the following molecule? "O=C(NNC(=O)C12CC3CC(CC(C3)C1)C2)c1ccncc1"
4.55

What value of inhibition has been reported for the following molecule? "CC(=O)NC(=O)c1ccc(-c2ccc(Cl)cc2)o1"
57.6

What value of inhibition has been reported for the following molecule? "COc1cc(OC)cc(C(=O)N2CCC(C(=O)c3ccc(F)cc3)CC2)c1"
5.91

What value of inhibition has been reported for the following molecule? "CCC(C)(C)NS(=O)(=O)c1cc(CN2C(=O)c3cccnc3C2=O)ccc1OC"
17.1
